In this section we review reported Kinematic viscosity at 40 C. [cSt], 2% oil values for a set of compounds.
experiment: Kinematic viscosity at 40 C of surfactant base formulation with added agent (Cannon viscometer); format: physicochemical; details: agent added at 2% to base formulation; 40 C
Observation Type: Kinematic viscosity at 40 C. [cSt], 2% oil (cSt)

{"Compound": "CCC(CC(C)CC)=NO (stereo not drawn)", "Display Unit": "cSt", "Endpoint Value": 246.3}
{"Compound": "CC(C)CCOC(=O)c1ccccc1O [Isoamyl Salicylate]", "Display Unit": "cSt", "Endpoint Value": 460.3}
{"Compound": "CC(CC=O)CCCC(C)(C)O (stereo not drawn) [Hydroxycitronellal]", "Display Unit": "cSt", "Endpoint Value": 310.8}
{"Compound": "CC12CCC(CC1)C(C)(C)O2", "Display Unit": "cSt", "Endpoint Value": 527.3}
{"Compound": "CCCCCCC1C(=O)CCC1C(=O)OC (stereo not drawn) [Dihyro Iso Jasmonate]", "Display Unit": "cSt", "Endpoint Value": 334.9}
{"Compound": "CCCCCC1(C)CCC(C)(C)C1=O (stereo not drawn)", "Display Unit": "cSt", "Endpoint Value": 260.2}
